Origin of values: patent US12134611B2

test system: hNLRP3 (Homo sapiens, UniProt Q96P20)
Construct: THP-1 cells were purchased from the American Type Culture Collection
Sequence (Q96P20 whole entry): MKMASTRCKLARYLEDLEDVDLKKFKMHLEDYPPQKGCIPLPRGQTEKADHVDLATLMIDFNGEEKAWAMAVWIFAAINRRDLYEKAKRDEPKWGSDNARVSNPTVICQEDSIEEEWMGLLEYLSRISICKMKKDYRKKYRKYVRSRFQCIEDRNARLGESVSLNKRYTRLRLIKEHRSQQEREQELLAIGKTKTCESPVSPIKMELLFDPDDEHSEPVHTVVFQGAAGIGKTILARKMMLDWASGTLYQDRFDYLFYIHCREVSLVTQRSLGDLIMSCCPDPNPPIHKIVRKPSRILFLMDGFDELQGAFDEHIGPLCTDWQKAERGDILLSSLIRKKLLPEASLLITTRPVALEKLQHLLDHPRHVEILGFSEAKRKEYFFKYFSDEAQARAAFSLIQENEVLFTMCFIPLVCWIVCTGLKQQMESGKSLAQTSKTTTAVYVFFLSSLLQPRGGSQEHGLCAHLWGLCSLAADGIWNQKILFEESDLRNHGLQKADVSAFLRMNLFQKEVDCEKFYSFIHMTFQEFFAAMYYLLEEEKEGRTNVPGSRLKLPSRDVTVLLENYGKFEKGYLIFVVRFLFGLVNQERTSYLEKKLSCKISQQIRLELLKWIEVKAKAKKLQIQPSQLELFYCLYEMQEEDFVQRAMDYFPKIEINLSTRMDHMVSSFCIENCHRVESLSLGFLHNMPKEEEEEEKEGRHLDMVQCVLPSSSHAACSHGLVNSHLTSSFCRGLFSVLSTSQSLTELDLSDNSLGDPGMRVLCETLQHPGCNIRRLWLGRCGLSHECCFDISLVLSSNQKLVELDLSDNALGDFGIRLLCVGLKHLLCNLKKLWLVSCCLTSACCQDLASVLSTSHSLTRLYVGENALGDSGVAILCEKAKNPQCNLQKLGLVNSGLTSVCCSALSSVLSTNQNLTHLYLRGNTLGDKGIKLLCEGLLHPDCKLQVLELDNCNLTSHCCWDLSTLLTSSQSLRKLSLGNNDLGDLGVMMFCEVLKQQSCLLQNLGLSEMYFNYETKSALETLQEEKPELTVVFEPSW
protocol details: IL-1β production in PMA-differentiated THP-1 cells stimulated with gramicidin (hTHP-1 assay)
condition notes: read-out: NLRP3 Antagonist, hNLRP3 (THP-1, IL-1b) Normalized: GeoMean IC50
metric: IC50

| compound | value |
| --- | --- |
| CC(C)(O)c1ccc2c(c1)S(=O)(=NC(=O)Nc1c3c(cc4c1CCC4)CCC3)NC2=O (single isomer, unassigned) [Compound 127b] | 5 to 30 µM |
| Cc1c(C2CC2)nc2c(c1NC(=O)N=S1(=O)NC(=O)c3ccc(C(C)(C)O)cc31)CCC2 (single isomer, unassigned) [Compound 138] | 0.2 to 1 µM |
| O=C1CC(Cc2ccccc2)S(=O)(=NC(=O)Nc2c3c(cc4c2CCC4)CCC3)N1 (stereo not drawn) | 1 to 5 µM |
